meta.source: paper PMC9475539

Biological target: the molecule itself
Experiment: SEC + native gel or EMSA
readout kind: stoichiometry N

[[record]]
protein = "TqsA E164Q (natural protein, E. coli K-12, UniProt P0AFS5 1-344, looked up) MAKPIITLNGLKIVIMLGMLVIILCGIRFAAEIIVPFILALFIAVILNPLVQHMVRWRVPRVLAVSILMTIIVMAMVLLLAYLGSALNELTRTLPQYRNSIMTPLQALEPLLQRVGIDVSVDQLAHYIDPNAAMTLLTNLLTQLSNAMSSIFLLLLTVLFMLLQVPQLPGKFQQMMARPVEGMAAIQRAIDSVSHYLVLKTAISIITGLVAWAMLAALDVRFAFVWGLLAFALNYIPNIGSVLAAIPPIAQVLVFNGFYEALLVLAGYLLINLVFGNILEPRIMGRGLGLSTLVVFLSLIFWGWLLGPVGMLLSVPLTIIVKIALEQTAGGQSIAVLLSDLNKE"
number = 5

[[record]]
protein = "TqsA N238L (natural protein, E. coli K-12, UniProt P0AFS5 1-344, looked up) MAKPIITLNGLKIVIMLGMLVIILCGIRFAAEIIVPFILALFIAVILNPLVQHMVRWRVPRVLAVSILMTIIVMAMVLLLAYLGSALNELTRTLPQYRNSIMTPLQALEPLLQRVGIDVSVDQLAHYIDPNAAMTLLTNLLTQLSNAMSSIFLLLLTVLFMLLEVPQLPGKFQQMMARPVEGMAAIQRAIDSVSHYLVLKTAISIITGLVAWAMLAALDVRFAFVWGLLAFALNYIPLIGSVLAAIPPIAQVLVFNGFYEALLVLAGYLLINLVFGNILEPRIMGRGLGLSTLVVFLSLIFWGWLLGPVGMLLSVPLTIIVKIALEQTAGGQSIAVLLSDLNKE"
number = 5

